I'd be grateful if you could share measured Cytotoxicity (%) for these entries.
System: HCT-8 host cells (Hs18S)
Details: primary screening at 10 uM, from Hs18S ΔCT

Below are worked cases with known answers.
- COMPOUND: "C=C(C)CCCC(C)CCOC(C)=O (stereo not drawn) [RHODINYL ACETATE]"
  Cytotoxicity (%): "10.9%"
- COMPOUND: "COc1c(O)cc2oc3cc(O)c(CC=C(C)C)c(O)c3c(=O)c2c1CC=C(C)C"
  Cytotoxicity (%): "95.1%"
- COMPOUND: "O=c1ccn([C@@H]2O[C@H](COP(=O)([O-])OP(=O)([O-])OP(=O)([O-])O)[C@@H](O)[C@H]2O)c(=O)[nH]1.[Na+].[Na+].[Na+] [URIDINE TRIPHOSPHATE TRISODIUM]"
  Cytotoxicity (%): "14.5%"

# batch size: 5; output Cytotoxicity (%) per entry
1. C=C(C)[C@@H]1CC[C@]2(C)CC[C@]3(C)[C@H](CC[C@@H]4[C@@]5(C)CC[C@H](OC(C)=O)C(C)(C)[C@@H]5CC[C@]43C)[C@@H]12 [LUPEOL ACETATE]
2. COc1cc([C@@H]2c3cc4c(cc3[C@H](OC(C)=O)[C@H]3COC(=O)[C@H]23)OCO4)cc(OC)c1OC [PODOPHYLLIN ACETATE]
3. COc1ccc([C@@H]2CC(=O)c3c(O)cc(O[C@@H]4O[C@H](CO[C@@H]5O[C@@H](C)[C@H](O)[C@@H](O)[C@H]5O)[C@@H](O)[C@H](O)[C@H]4O)cc3O2)cc1O
4. C[C@@H]1[C@H](O)[C@@H](C)/C=C/C=C/CC/C=C/C=C/C=C/C=C/C(O[C@H]2O[C@H](C)[C@@H](O)[C@H](N)[C@@H]2O)CC2O[C@](O)(CC(O)C(O)CCC(O)CC(O)CC(O)CC(=O)O[C@H]1C)CC(O)C2C(=O)O (stereo partly drawn)
5. CC1(C)C(=O)[C@@H]2O[C@@H]2[C@@]2(C)C1C[C@@H](O)[C@]1(C)C2CC[C@@]2(C)[C@H](c3ccoc3)OC(=O)C3OC321 (stereo partly drawn) [1,2alpha-EPOXYDEACETOXYDIHYDROGEDUNIN]

-12.1%
33.2%
21.5%
51.7%
-12.9%

Quick batch: Cytotoxicity (%) for everything below.
1. CC(C)CCC[C@@H](C)[C@H]1CC[C@H]2[C@@H]3CC[C@H]4CCCC[C@]4(C)[C@H]3CC[C@]12C
2. Cc1cc2nc3c(=O)[nH]c(=O)nc-3n(C[C@H](O)[C@H](O)[C@H](O)COP(=O)([O-])O)c2cc1C.[Na+] [RIBOFLAVIN 5-PHOSPHATE SODIUM]
3. CC(=O)O[C@H]1C[C@@H](OC(C)=O)C(C)(C)C2C[C@@H](O)[C@]3(C)C(CC[C@@]4(C)[C@H](c5ccoc5)OC(=O)[C@H]5O[C@]543)[C@]21C (stereo partly drawn)
4. O.O=c1ccc2cc(O[C@@H]3OC(CO)[C@@H](O)[C@@H](O)C3O)c(O)cc2o1 (stereo partly drawn) [ESCULIN MONOHYDRATE]

["12.2%", "-25.0%", "-46.2%", "-34.0%"]
